Test system: transglutaminase (TGase)
method_description: Measurement of TG (TGase inhibitory activity, monodansyl cadaverine / N,N-dimethylcasein fluorescence, FDSS 3000)
Assay type: biochemical
experimental_context: TGase activity with compound (10 mM, 1 μL in 0.1 ml enzyme reaction solution); DMSO control taken as 100
assay_endpoint: TGase activity remaining (% of DMSO control = 100)
# respond with the number and nothing more

Entry O=C(OB(c1ccc(C(F)(F)F)cc1)c1ccc(C(F)(F)F)cc1)c1ccccn1 [Example 284] has what TGase activity remaining (% of DMSO control = 100)?
89

Same question, NC(COB(c1ccccc1)c1ccc(COCc2ccc(B(OCC(N)Cc3ccccc3)c3ccccc3)cc2)cc1)Cc1ccccc1 (stereo not drawn) [Example 205] this time
47

Same thing, different compound: CC(C)(N)COB(c1ccc(Cl)c(F)c1)c1ccc(Cl)c(F)c1 [Example 236]
87

Would you kindly repeat that for Cc1ccc(B(O)c2ccc(COCc3ccc(B(O)c4ccc(C)c(Cl)c4)cc3)cc2)cc1Cl [Example 322] ?
98

Another: COc1ccc(C(OB(c2ccccc2)c2ccc(COc3ccc(B(OC(c4ccc(OC)cc4)c4ccccn4)c4ccccc4)cc3)cc2)c2ccccn2)cc1 (stereo not drawn) [Example 430]
106

And what about the compound NCCOB(c1ccccc1)c1ccc(B(OCCN)c2ccccc2)cc1 [Example 118] ?
93

Moving on to the next compound: O=C(OB(c1ccccc1)c1ccccc1)c1ccccn1 [Example 218, diphenyl(picolinate-O,N)borane]
90

Check O=C(OB(c1ccccc1)c1ccccc1)C1CC(O)CN1 (stereo not drawn) [Example 268, diphenyl(hydroxyprolinate-O,N)borane] too.
103

Another compound to look at: OB(c1ccc(Cl)cc1F)c1ccc(Cl)cc1F [Example 79, bis(4-chloro-2-fluorophenyl)borinic acid]
97

Param item: OB(c1ccc(COCc2cccc(B(O)c3cc(F)c(F)c(F)c3)c2)cc1)c1cc(F)c(F)c(F)c1 [Example 342]
114

Another compound: CCCCC(N)C(=O)OB(c1ccccc1)c1ccccc1 (stereo not drawn) [Example 226]
97

Further, for CNCCOB(c1ccccc1)c1ccc(Oc2ccc(B(OCCNC)c3ccccc3)cc2)cc1 [Example 386] ?
10

Ok, now NC(COB(c1ccccc1)c1cccc(COCc2cccc(B(OCC(N)c3ccccc3)c3ccccc3)c2)c1)c1ccccc1 (stereo not drawn) [Example 462]
31

What about this compound? NCCOB(c1ccc(Cl)c(F)c1)c1ccc(Cl)c(F)c1 [Example 234]
98

Repeat with CCCCC(N)C(=O)OB(c1ccc(C)c(Cl)c1)c1ccc(C)c(Cl)c1 (stereo not drawn) [Example 292]
146

Subsequent entry: Cc1cc(B(O)c2cccc(COCc3ccccc3B(O)c3ccc(Cl)c(C)c3)c2)ccc1Cl [Example 344]
91

OB(c1ccccc1)c1ccc(COCc2ccc(B(O)c3ccccc3)cc2)cc1 [Example 137] ?
14

For OB(c1ccccc1)c1ccccc1B(O)c1ccccc1 [Example 297, 1,2-di(phenylhydroxyboryl)benzene] then?
89

How about NC(COB(c1ccccc1)c1ccc(COCc2ccc(B(OCC(N)Cc3ccccc3)c3ccccc3)cc2)cc1)Cc1ccccc1 (stereo not drawn) [Example 479] ?
54

Moving on to the next compound: Cc1ccc(B(OC(=O)C(N)CCCNC(N)=O)c2ccc(C)c(Cl)c2)cc1Cl (stereo not drawn) [Example 287]
146

Same again, this time with NC(CS)C(=O)OB(c1ccccc1)c1ccccc1 (stereo not drawn) [Example 266, diphenyl(cysteinate-O,N)borane]
84

Do the same for NCCSB(c1ccccc1)c1ccc(Oc2ccc(B(SCCN)c3ccccc3)cc2)cc1 [Example 433] please
−5

Quick one: CN(C)CCSB(c1ccccc1)c1ccccc1 [Example 294, diphenyl dimethylaminoethylthioborane]
114

What about this compound? OB(c1ccccc1)c1cc(B(O)c2ccccc2)cc(B(O)c2ccccc2)c1 [Example 130, 1,3,5-tri(phenylhydroxyboryl)benzene]
116

Next compound: CC(C)(C)c1cc(B(O)c2ccccc2)c2c(c1)C(C)(C)c1cc(C(C)(C)C)cc(B(O)c3ccccc3)c1O2 [Example 377]
70

Lookup c1ccc(B(OC(c2ccccc2)c2ccccn2)c2ccccc2COCc2ccccc2B(OC(c2ccccc2)c2ccccn2)c2ccccc2)cc1 (stereo not drawn) [Example 133]
106

Then this compound: CNCCOB(c1ccccc1)c1ccc(COc2ccc(B(OCCNC)c3ccccc3)cc2)cc1 [Example 427]
20

Please do the same for NCCC(N)C(=O)OB(c1ccc(Cl)c(F)c1)c1ccc(Cl)c(F)c1 (stereo not drawn) [Example 95] as well.
114

Ok, now NC(CCC(=O)O)C(=O)OB(c1ccccc1)c1ccc(Oc2ccc(B(OC(=O)C(N)CCC(=O)O)c3ccc(CO)cc3)cc2)cc1 (stereo not drawn) [Example 275]
117

Moving on to NC(=O)CC(N)C(=O)OB(c1ccccc1)c1ccc(Oc2ccc(B(O)c3ccccc3)cc2)cc1 (single isomer, unassigned) [Example 6]
23
